# assay_remarks: physchem
# experimental_parameters: n-octanol/phosphate buffered saline, pH 7.4
# Description: n-Octanol/phosphate buffered saline partition coefficient, log D of the compound at pH 7.4 by LC-UV method
Tag: yes if measured logD is not below 1, no if it is.

[[record]]
smi = "C[C@@](CCN1Cc2cc(C#Cc3ccc(C4(O)COC4)cc3)sc2C1=O)(C(=O)NO)S(C)(=O)=O"
classification = "yes"

[[record]]
smi = "C[C@@](CCN1Cc2cc(C#CC#CC3(O)COC3)cn2C1=O)(C(=O)NO)S(C)(=O)=O"
classification = "no"

[[record]]
smi = "C[C@@](CCN1Cc2cc(C#Cc3ccc(C4(CO)CC4)cc3)cn2C1=O)(C(=O)NO)S(C)(=O)=O"
classification = "yes"

[[record]]
smi = "C[C@@](CCN1Cc2cc(C#Cc3ccc(CN4CCOCC4)cc3)cn2C1=O)(C(=O)NO)S(C)(=O)=O"
classification = "yes"

[[record]]
smi = "COc1ccc(-c2cc3c(s2)C(=O)N(CC[C@](C)(C(=O)NO)S(C)(=O)=O)C3)c(F)c1"
classification = "yes"

[[record]]
smi = "CC(C)(O)C#CC#Cc1cc2c(s1)C(=O)N(CC[C@](C)(C(=O)NO)S(C)(=O)=O)C2"
classification = "yes"

[[record]]
smi = "C[C@@](CCN1Cc2cc(C#Cc3ccc([C@H](O)CO)cc3)sc2C1=O)(C(=O)NO)S(C)(=O)=O"
classification = "no"


Is logD for `C[C@@](CCN1Cc2cc(C#Cc3ccc([C@H]4C[C@@H]4CO)cc3)cn2C1=O)(C(=O)NO)S(C)(=O)=O` at or above 1?
yes

----------
The listing below reports ΔTm for compounds tested on UDP-3-O-acyl-N-acetylglucosamine deacetylase (Escherichia coli K-12), P0A725 [C125S].
Answer with a number only, understood to be in °C.

Any idea what ΔTm came out for `CC(C)(O)c1ccc(C#Cc2cc3c(s2)C(=O)N(CC[C@](C)(C(=O)NO)S(C)(=O)=O)C3)cc1` on UDP-3-O-acyl-N-acetylglucosamine deacetylase (Escherichia coli K-12), P0A725 [C125S]?
13

Any idea what ΔTm came out for `COc1ccc(-c2cn(CC[C@](C)(C(=O)NO)S(C)(=O)=O)c(=O)o2)c(F)c1` on UDP-3-O-acyl-N-acetylglucosamine deacetylase (Escherichia coli K-12), P0A725 [C125S]?
5.2

Any idea what ΔTm came out for `C[C@@](CCN1Cc2cc(C#CC#CCOC(=O)N3CCC(O)CC3)cn2C1=O)(C(=O)NO)S(C)(=O)=O` on UDP-3-O-acyl-N-acetylglucosamine deacetylase (Escherichia coli K-12), P0A725 [C125S]?
9.4

----------
In this section we review reported ΔTm values for a set of molecules.
# System: UDP-3-O-acyl-N-acetylglucosamine deacetylase (Pseudomonas aeruginosa (strain ATCC 15692 / PAO1 / 1C / PRS 101 / LMG12228)), P47205 [C40S]
# Sequence (whole entry): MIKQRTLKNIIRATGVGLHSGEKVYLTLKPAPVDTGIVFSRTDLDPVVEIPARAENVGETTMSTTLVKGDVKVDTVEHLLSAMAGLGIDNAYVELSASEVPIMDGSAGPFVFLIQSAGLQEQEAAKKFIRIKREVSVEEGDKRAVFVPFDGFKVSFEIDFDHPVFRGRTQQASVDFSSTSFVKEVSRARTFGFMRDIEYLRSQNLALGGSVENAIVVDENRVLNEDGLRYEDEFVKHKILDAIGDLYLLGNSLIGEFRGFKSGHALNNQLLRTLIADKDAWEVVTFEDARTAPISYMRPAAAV
Answer with a number only, understood to be in °C.

Previously resolved entries follow.
[[record]]
smi = "C[C@@](CCN1Cc2cc(C#Cc3ccc([C@H]4C[C@@H]4CO)cc3)cn2C1=O)(C(=O)NO)S(C)(=O)=O"
val = 13.4

[[record]]
smi = "C[C@@](CCN1Cc2cc(C#Cc3ccc(COC(=O)N4CCC(O)CC4)cc3)cn2C1=O)(C(=O)NO)S(C)(=O)=O"
val = 14.2

[[record]]
smi = "C[C@@](CCN1Cc2cc(C#CC#CC3(CO)CC3)sc2C1=O)(C(=O)NO)S(C)(=O)=O"
val = 14.2

[[record]]
smi = "COc1ccc(-c2ccc3c(c2)oc(=O)n3CC[C@](C)(C(=O)NO)S(C)(=O)=O)c(F)c1"
val = 11

[[record]]
smi = "CC(C)(O)c1ccc(C#Cc2ccc3c(c2)CN(CC[C@](C)(C(=O)NO)S(C)(=O)=O)C3=O)cc1"
val = 12.8

[[record]]
smi = "C[C@@](CCN1Cc2cc(C#CC#C[C@H](O)CO)cn2C1=O)(C(=O)NO)S(C)(=O)=O"
val = 10.3

[[record]]
smi = "C[C@@](CCN1Cc2cc(C#Cc3ccc(CN4CCOCC4)cc3)sc2C1=O)(C(=O)NO)S(C)(=O)=O"
val = 15.5

[[record]]
smi = "C[C@@](CCN1Cc2cc(C#CC#C[C@H]3C[C@@H]3CO)cn2C1=O)(C(=O)NO)S(C)(=O)=O"
val = 13.2

[[record]]
smi = "C[C@@](CCN1Cc2cc(C#Cc3ccc(C4(O)COC4)cc3)sc2C1=O)(C(=O)NO)S(C)(=O)=O"
val = 14.3

[[record]]
smi = "CC(C)(O)c1ccc(C#Cc2cc3c(s2)C(=O)N(CC[C@](C)(C(=O)NO)S(C)(=O)=O)C3)cc1"
val = 15.5


With those in mind, consider the next molecule.
Query (molecule): `C[C@@](CCN1Cc2cc(C#CC#C[C@@H]3C[C@H]3CO)sc2C1=O)(C(=O)NO)S(C)(=O)=O` ; field requested: ΔTm
15

----------
# assay_remarks: physchem
# experimental_parameters: DMSO, pH 4
# Description: Solubility of the compound in DMSO at pH 4 incubated for 24 hrs by LC-UV method
In this section we review reported solubility at 24 h values for a set of compounds.

[[record]]
smi = "C[C@@](CCN1Cc2cc(C#CC#CC3(N)CC3)sc2C1=O)(C(=O)NO)S(C)(=O)=O.Cl"
assay_endpoint = "solubility at 24 h"
val = "> 740 µg/mL"

[[record]]
smi = "C[C@@](CCN1Cc2cc(C#Cc3ccc(CN4CCOCC4)cc3)sc2C1=O)(C(=O)NO)S(C)(=O)=O"
assay_endpoint = "solubility at 24 h"
val = "> 900 µg/mL"

[[record]]
smi = "C[C@@](CCN1Cc2cc(C#CC#CC3(O)COC3)cn2C1=O)(C(=O)NO)S(C)(=O)=O"
assay_endpoint = "solubility at 24 h"
val = "> 740 µg/mL"


Query (compound): `C[C@@](CCN1Cc2cc(C#Cc3ccc(CN4CCOCC4)cc3)ccc2C1=O)(C(=O)NO)S(C)(=O)=O` ; field requested: solubility at 24 h
> 890 µg/mL

Query (compound): `C[C@@](CCN1Cc2cc(C#CC#CC3(O)COC3)sc2C1=O)(C(=O)NO)S(C)(=O)=O` ; field requested: solubility at 24 h
> 760 µg/mL

Query (compound): `CC(C)(O)C#CC#Cc1cc2c(s1)C(=O)N(CC[C@](C)(C(=O)NO)S(C)(=O)=O)C2` ; field requested: solubility at 24 h
> 740 µg/mL

Query (compound): `C[C@@](CCN1Cc2cc(C#Cc3ccc(COC(=O)N4CCC(O)CC4)cc3)cn2C1=O)(C(=O)NO)S(C)(=O)=O` ; field requested: solubility at 24 h
< 1 µg/mL

----------
# System: UDP-3-O-acyl-N-acetylglucosamine deacetylase (Escherichia coli K-12), P0A725 [C125S]
# Sequence (whole entry): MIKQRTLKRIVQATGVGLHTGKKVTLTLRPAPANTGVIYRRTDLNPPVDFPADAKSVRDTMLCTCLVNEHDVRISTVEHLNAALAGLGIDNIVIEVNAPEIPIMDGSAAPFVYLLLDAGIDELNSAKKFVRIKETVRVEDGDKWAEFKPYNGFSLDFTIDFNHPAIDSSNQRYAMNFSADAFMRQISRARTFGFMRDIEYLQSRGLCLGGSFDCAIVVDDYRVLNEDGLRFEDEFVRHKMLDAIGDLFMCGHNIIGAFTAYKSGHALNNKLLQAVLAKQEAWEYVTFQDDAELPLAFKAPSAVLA
assay_endpoint: ΔTm (°C)
Answer with a number only, understood to be in °C.

Previously resolved entries follow.
[[record]]
smi = "C[C@@](CCN1Cc2cc(C#CC#CC3(CO)CC3)cn2C1=O)(C(=O)NO)S(C)(=O)=O"
assay_endpoint = "ΔTm"
val = 9.9

[[record]]
smi = "C[C@@](CCN1Cc2cc(C#Cc3ccc(COC(=O)N4CCC(O)CC4)cc3)cn2C1=O)(C(=O)NO)S(C)(=O)=O"
assay_endpoint = "ΔTm"
val = 11.8


Any idea what ΔTm came out for `C[C@@](CCN1Cc2cc(C#CC#CC3(N)CC3)sc2C1=O)(C(=O)NO)S(C)(=O)=O.Cl` on UDP-3-O-acyl-N-acetylglucosamine deacetylase (Escherichia coli K-12), P0A725 [C125S]?
10

Any idea what ΔTm came out for `CC(C)(O)C#CC#Cc1cc2c(s1)C(=O)N(CC[C@](C)(C(=O)NO)S(C)(=O)=O)C2` on UDP-3-O-acyl-N-acetylglucosamine deacetylase (Escherichia coli K-12), P0A725 [C125S]?
9.9
